- Test system: UM-UC-17 bladder cancer cell line
- PROCEDURE_TEXT: MTS IC50, UM-UC-17 bladder cancer cell line
- Format: cell-based
- APPLIED_CONDITIONS: 1000 cells/well
pIC50: −log10 of the molar value.
READOUT_LABEL: pIC50

>>> assay_value("C=C1C(=O)O[C@@H]2[C@H]1CC[C@H](C)[C@]1(O)C=CC(=O)[C@@]21C (single isomer, unassigned) [PARTHENIN, Parthenin]")
5.20

a: C=C1C(=O)O[C@@H]2[C@H]1CC[C@H](C)[C@@H]1CCC(=O)[C@@]21C (single isomer, unassigned) [DAMSIN, Damsin]
b: C=C1C(=O)O[C@@H]2[C@H]1CC[C@H](C)C1=CCC(=O)[C@]12C (single isomer, unassigned) [NEOAMBROSIN, Neoambrosin]
c: C=C1C(=O)O[C@@H]2[C@H]1CC[C@H](C)[C@@H]1C=CC(=O)[C@@]21C (single isomer, unassigned) [AMBROSIN, Ambrosin]
In: Could you please order the items by pIC50, going from the lowest number to the highest? Sort the labels as requested; that list is your answer.
Out: b, a, c
